System: HT-29
Test: Cytotoxicity in human HT-29 cells assessed as reduction in cell viability incubated for 72 hrs by MTS assay
Format: functional, cell-based
Settings: HT-29, 72 h
Could you please report measured IC50 for the items listed next?

# input compound: `COc1cc(Br)cc2[nH]cc(-c3cnc(-c4cc(Br)c[nH]4)o3)c12` ; wanted: its IC50 > 10 µM

# input compound: `COc1cc(Br)cc2[nH]cc(-c3cnc(-c4ccc(Br)[nH]4)o3)c12` ; wanted: its IC50 > 10 µM

# input compound: `COc1cc(Br)cc2[nH]c(I)c(-c3cnc(-c4ccc[nH]4)o3)c12` ; wanted: its IC50 > 10 µM

# input compound: `COc1cc(Br)cc2[nH]cc(-c3cnc(-c4ccc[nH]4)o3)c12` ; wanted: its IC50 > 10 µM

# input compound: `COc1cc(Br)cc2[nH]cc(-c3oc(-c4ccc[nH]4)nc3I)c12` ; wanted: its IC50 > 10 µM

# input compound: `COc1cc2c(-c3cnc(-c4ccc[nH]4)o3)c[nH]c2cc1Br` ; wanted: its IC50 7.1 µM

----------
Experiment: Toxicity in zebrafish embryos assessed as survival at 1396 uM after 72 hrs (reference value: 95%)
Set-up: species or system Danio rerio
Settings: in vivo
READOUT: survival at 72 h, 1396 µM (%)
Write the value in % as a bare number.

# input compound: `COc1cc2c(-c3cnc(-c4ccc[nH]4)o3)c[nH]c2cc1Br` ; wanted: its survival at 72 h, 1396 µM 0

----------
Target: Receptor-type tyrosine-protein kinase FLT3 (Homo sapiens, UniProt P36888, N841I)
Assay: Binding affinity to human partial length FLT3 N841I mutant (V592 to Y969 residues) expressed in bacterial expression system by active-site directed competition binding assay based Kinomescan method
READOUT: pKd
# pKd = -log10(concentration in molar units)

# input compound: `COc1cc2c(-c3cnc(-c4ccc[nH]4)o3)c[nH]c2cc1Br` ; wanted: its pKd 5.05

----------
READOUT: IC50

Notebook: pull reported IC50 for Receptor-interacting serine/threonine-protein kinase 2 (Homo sapiens, UniProt O43353), entry `COc1cc(Br)cc2[nH]cc(-c3cnc(-c4ccc(Br)[nH]4)o3)c12` > 10 µM

Notebook: pull reported IC50 for Receptor-interacting serine/threonine-protein kinase 2 (Homo sapiens, UniProt O43353), entry `COc1cc(Br)cc2[nH]c(I)c(-c3cnc(-c4ccc[nH]4)o3)c12` > 10 µM

Notebook: pull reported IC50 for Receptor-interacting serine/threonine-protein kinase 2 (Homo sapiens, UniProt O43353), entry `COc1cc(Br)cc2[nH]cc(-c3cnc(-c4cc(Br)c[nH]4)o3)c12` > 10 µM

Notebook: pull reported IC50 for Receptor-interacting serine/threonine-protein kinase 2 (Homo sapiens, UniProt O43353), entry `COc1cc(Br)cc2[nH]cc(-c3oc(-c4ccc[nH]4)nc3I)c12` > 10 µM

Notebook: pull reported IC50 for Receptor-interacting serine/threonine-protein kinase 2 (Homo sapiens, UniProt O43353), entry `COc1cc2c(-c3cnc(-c4ccc[nH]4)o3)c[nH]c2cc1Br` 1.1 µM

----------
Biological target: Serine/threonine-protein kinase 17B (Homo sapiens, UniProt O94768)
Sequence (O94768 whole entry): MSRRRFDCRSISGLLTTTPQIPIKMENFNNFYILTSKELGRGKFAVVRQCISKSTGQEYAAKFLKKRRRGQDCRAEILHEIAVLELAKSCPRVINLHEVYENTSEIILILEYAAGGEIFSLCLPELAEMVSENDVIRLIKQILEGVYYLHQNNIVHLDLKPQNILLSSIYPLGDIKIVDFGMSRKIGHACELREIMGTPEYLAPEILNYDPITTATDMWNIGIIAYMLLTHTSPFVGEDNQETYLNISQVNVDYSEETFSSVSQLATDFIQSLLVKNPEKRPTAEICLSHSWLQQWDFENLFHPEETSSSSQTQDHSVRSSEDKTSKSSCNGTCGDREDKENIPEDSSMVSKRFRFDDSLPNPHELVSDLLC
Test: Inhibition of DRAK2 (unknown origin) expressed in HEK293 cells by NanoLuc-luciferase reporter based intracellular ATP competitiveness assay
Format: cell-based
READOUT: IC50 (µM)
Write the value in µM as a bare number.

Notebook: pull reported IC50 for Serine/threonine-protein kinase 17B (Homo sapiens, UniProt O94768), entry `COc1cc2c(-c3cnc(-c4ccc[nH]4)o3)c[nH]c2cc1Br` 0.5

Notebook: pull reported IC50 for Serine/threonine-protein kinase 17B (Homo sapiens, UniProt O94768), entry `COc1cc(Br)cc2[nH]cc(-c3cnc(-c4ccc[nH]4)o3)c12` 8.3

Notebook: pull reported IC50 for Serine/threonine-protein kinase 17B (Homo sapiens, UniProt O94768), entry `COc1cc(Br)cc2[nH]cc(-c3cnc(-c4ccc(Br)[nH]4)o3)c12` 3.3

FYI, the data here is from ChEMBL document CHEMBL4334516.
